All values here come from patent US20170081400A1.

- Study System: T1, human TL1A extracellular domain with N-terminal HIS and FLAG tag (human, UniProt O95150 72-251)
- T1 construct: whole entry named. ~70 kDa fraction purified by gel filtration
- T1 sequence: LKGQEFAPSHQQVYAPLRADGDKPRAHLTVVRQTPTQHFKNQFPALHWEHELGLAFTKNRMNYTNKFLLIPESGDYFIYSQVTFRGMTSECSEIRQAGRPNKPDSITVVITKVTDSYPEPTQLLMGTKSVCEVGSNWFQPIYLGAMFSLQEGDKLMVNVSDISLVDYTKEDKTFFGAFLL
- Protocol Text: SPR run 2; supernatant on Protein A; TL1A 10 ug/mL; timepoint 220
This section presents binders with their documented TL1A Binding Level (Late) values.

# Binder, TL1A Binding Level (Late), RU
rows = [
    ("320-199 (antibody, human IgG1, name in Kabat numbering, V domains shown, human IgG1, lambda) VH: QVQLVQSGAEVKKPGASVKVSCKASGYTFTSYDINWVRQAPGQGLEWMGWLNPNSGNTGYAQKFQGRVTMTADRSTSTAYMELSSLRSEDTAVYYCAREVPETAAFEYWGQGTLVTVSS VL: QSVLTQPPSVSGAPGQRVTISCWSSSSDIGAGLGVHWYQQLPGTAPKLLIEGYYNRPSGVPDRFSGSKSGTSASLTITGLLPEDEGDYYCQSYDGTLSALFGGGTKLTVLG", 233),
    ("320-246 (antibody, human IgG1, name in Kabat numbering, V domains shown, human IgG1, lambda) VH: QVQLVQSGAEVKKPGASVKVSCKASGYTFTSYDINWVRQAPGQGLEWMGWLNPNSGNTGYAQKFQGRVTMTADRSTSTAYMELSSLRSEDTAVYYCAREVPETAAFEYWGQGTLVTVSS VL: QSVLTQPPSVSGAPGQRVTISCTSSSSDKGAGLGVHWYQQLPGTAPKLLIEGYYNRPSGVPDRFSGSKSGTSASLTITGLLPEDEGDYYCQSYDGTLSALFGGGTKLTVLG", 23),
    ("320-232 (antibody, human IgG1, name in Kabat numbering, V domains shown, human IgG1, lambda) VH: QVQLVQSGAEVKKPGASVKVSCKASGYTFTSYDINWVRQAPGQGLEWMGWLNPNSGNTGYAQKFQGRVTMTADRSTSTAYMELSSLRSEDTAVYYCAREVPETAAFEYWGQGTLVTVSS VL: QSVLTQPPSVSGAPGQRVTISCTSSSYDIGAGLGVHWYQQLPGTAPKLLIEGYYNRPSGVPDRFSGSKSGTSASLTITGLLPEDEGDYYCQSYDGTLSALFGGGTKLTVLG", 235),
    ("320-236 (antibody, human IgG1, name in Kabat numbering, V domains shown, human IgG1, lambda) VH: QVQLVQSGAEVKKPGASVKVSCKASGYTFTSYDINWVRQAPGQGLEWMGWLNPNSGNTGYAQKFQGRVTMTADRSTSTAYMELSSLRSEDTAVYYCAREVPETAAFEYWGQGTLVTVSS VL: QSVLTQPPSVSGAPGQRVTISCTSSSSHIGAGLGVHWYQQLPGTAPKLLIEGYYNRPSGVPDRFSGSKSGTSASLTITGLLPEDEGDYYCQSYDGTLSALFGGGTKLTVLG", 232),
    ("320-233 (antibody, human IgG1, name in Kabat numbering, V domains shown, human IgG1, lambda) VH: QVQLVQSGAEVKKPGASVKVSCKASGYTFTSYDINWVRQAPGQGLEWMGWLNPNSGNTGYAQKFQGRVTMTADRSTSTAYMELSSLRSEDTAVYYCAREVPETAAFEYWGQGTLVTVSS VL: QSVLTQPPSVSGAPGQRVTISCTSSSSAIGAGLGVHWYQQLPGTAPKLLIEGYYNRPSGVPDRFSGSKSGTSASLTITGLLPEDEGDYYCQSYDGTLSALFGGGTKLTVLG", 235),
    ("320-222 (antibody, human IgG1, name in Kabat numbering, V domains shown, human IgG1, lambda) VH: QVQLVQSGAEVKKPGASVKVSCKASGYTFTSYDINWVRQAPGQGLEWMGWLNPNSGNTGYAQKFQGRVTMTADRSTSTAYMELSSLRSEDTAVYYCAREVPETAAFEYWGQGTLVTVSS VL: QSVLTQPPSVSGAPGQRVTISCTSSLSDIGAGLGVHWYQQLPGTAPKLLIEGYYNRPSGVPDRFSGSKSGTSASLTITGLLPEDEGDYYCQSYDGTLSALFGGGTKLTVLG", 96),
    ("320-213 (antibody, human IgG1, name in Kabat numbering, V domains shown, human IgG1, lambda) VH: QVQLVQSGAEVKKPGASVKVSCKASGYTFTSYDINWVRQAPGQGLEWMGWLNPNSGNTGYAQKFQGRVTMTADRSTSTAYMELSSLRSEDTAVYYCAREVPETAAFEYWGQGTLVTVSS VL: QSVLTQPPSVSGAPGQRVTISCTSKSSDIGAGLGVHWYQQLPGTAPKLLIEGYYNRPSGVPDRFSGSKSGTSASLTITGLLPEDEGDYYCQSYDGTLSALFGGGTKLTVLG", 194),
    ("320-231 (antibody, human IgG1, name in Kabat numbering, V domains shown, human IgG1, lambda) VH: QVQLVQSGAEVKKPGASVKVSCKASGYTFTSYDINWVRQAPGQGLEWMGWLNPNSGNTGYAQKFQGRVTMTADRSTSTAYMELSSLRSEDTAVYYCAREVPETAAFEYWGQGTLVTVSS VL: QSVLTQPPSVSGAPGQRVTISCTSSSWDIGAGLGVHWYQQLPGTAPKLLIEGYYNRPSGVPDRFSGSKSGTSASLTITGLLPEDEGDYYCQSYDGTLSALFGGGTKLTVLG", 243),
    ("320-210 (antibody, human IgG1, name in Kabat numbering, V domains shown, human IgG1, lambda) VH: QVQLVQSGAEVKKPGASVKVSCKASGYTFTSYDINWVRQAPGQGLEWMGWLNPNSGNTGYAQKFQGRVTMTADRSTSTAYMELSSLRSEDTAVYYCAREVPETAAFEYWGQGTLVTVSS VL: QSVLTQPPSVSGAPGQRVTISCTSQSSDIGAGLGVHWYQQLPGTAPKLLIEGYYNRPSGVPDRFSGSKSGTSASLTITGLLPEDEGDYYCQSYDGTLSALFGGGTKLTVLG", 202),
    ("320-239 (antibody, human IgG1, name in Kabat numbering, V domains shown, human IgG1, lambda) VH: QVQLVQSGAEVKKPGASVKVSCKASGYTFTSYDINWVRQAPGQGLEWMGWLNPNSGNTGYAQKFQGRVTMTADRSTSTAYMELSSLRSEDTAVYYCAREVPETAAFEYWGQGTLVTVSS VL: QSVLTQPPSVSGAPGQRVTISCTSSSSWIGAGLGVHWYQQLPGTAPKLLIEGYYNRPSGVPDRFSGSKSGTSASLTITGLLPEDEGDYYCQSYDGTLSALFGGGTKLTVLG", 163),
    ("320-223 (antibody, human IgG1, name in Kabat numbering, V domains shown, human IgG1, lambda) VH: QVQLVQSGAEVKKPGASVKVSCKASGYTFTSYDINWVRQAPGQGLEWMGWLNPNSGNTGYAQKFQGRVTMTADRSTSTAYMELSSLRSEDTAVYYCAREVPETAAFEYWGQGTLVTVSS VL: QSVLTQPPSVSGAPGQRVTISCTSSWSDIGAGLGVHWYQQLPGTAPKLLIEGYYNRPSGVPDRFSGSKSGTSASLTITGLLPEDEGDYYCQSYDGTLSALFGGGTKLTVLG", 66),
]
